Molecular target: T1, mouse IL-18Rα ectodomain (amino acids 19-329) (mouse, UniProt Q61098 19-329, biotinylated on the AviTag (BirA ligase))
T1 construct: range 19-329; Secreted from Expi293 cells (H7 signal peptide); also called mIL-18Rα; Ra
T1 sequence: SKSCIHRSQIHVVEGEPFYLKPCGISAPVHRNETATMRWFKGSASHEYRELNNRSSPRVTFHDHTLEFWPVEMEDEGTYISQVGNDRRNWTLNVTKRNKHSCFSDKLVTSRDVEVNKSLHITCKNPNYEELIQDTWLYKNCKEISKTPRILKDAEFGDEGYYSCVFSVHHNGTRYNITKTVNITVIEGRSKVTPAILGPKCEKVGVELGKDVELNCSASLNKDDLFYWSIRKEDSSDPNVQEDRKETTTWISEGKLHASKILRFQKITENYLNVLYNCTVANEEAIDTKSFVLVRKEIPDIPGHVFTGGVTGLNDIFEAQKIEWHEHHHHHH
Assay: flow cytometry, mIL-18Rα titrated on yeast-displayed murine IL-18 variant (binding isotherm, %Max)
assay.metric: EC50 (read off the curve)

INSERT INTO measurements (binder, assay_metric, meas_value) VALUES
  ('mA7 (ligand, recombinant with C-terminal hexahistidine tag in SPR) YFGRLHCTTAVIRNINDQVLFVDKRQPVFEDMTDIDQSASEPQTRLIIYAYGDNRVRGKAVTLSVKDSKMSTLSCKNKIISFEEMDPPENIDDIQSDLIFFQKRVPGHNKMEFESSLYEGHFLACQKEDDAFKLILKKKDENGDKSVMFTLTNLHQS', 'EC50 (read off the curve)', '~10 nM');

Recorded result, mB1 (ligand, recombinant with C-terminal hexahistidine tag in SPR) HFGRLHCTTAVIRNINDQVLFVDKRQPVFEDMTDIDQSASEPQTRLIIYGYADSDARAKAVTLSVKDSKMSTLSCKNKIISFEEMDPPENIDDIQSDLIFFQKSVPGHNKMEFESSLYEGHFLACQKEDDAFKLILKKKDENGDKSVMFTVTNLHQS , EC50 (read off the curve): ~20 nM

Recorded result, mCS2 (ligand, recombinant with C-terminal hexahistidine tag in SPR; also called DR-IL-18 (mCS2); DR-18 variant mCS2) HFGRLHCTTAVIRNINDQVLFVDKRQPVFEDMTDIDQSASEPQTRLIIYAYGDSRARGKAVTLSVKDSKMSTLSCKNKIISFEEMDPPENIDDIQSDLIFFQKRVPGHNKMEFESSLYEGHFLACQKEDDAFKLILKKKDENGDKSVMFTLTNLHQS , EC50 (read off the curve): ~10 nM

Recorded result, wild-type mouse IL-18 (mature form) (ligand, recombinant from E. coli with C-terminal hexahistidine tag in SPR; also called mIL-18 WT; WT mIL-18) NFGRLHCTTAVIRNINDQVLFVDKRQPVFEDMTDIDQSASEPQTRLIIYMYKDSEVRGLAVTLSVKDSKMSTLSCKNKIISFEEMDPPENIDDIQSDLIFFQKRVPGHNKMEFESSLYEGHFLACQKEDDAFKLILKKKDENGDKSVMFTLTNLHQS , EC50 (read off the curve): ~10 nM

Recorded result, mCS1 (ligand, recombinant with C-terminal hexahistidine tag in SPR) NFGRLHCTTAVIRNINDQVLFVDKRQPVFEDMTDIDQSASEPQTRLIIYGYADSRVRGKAVTLSVKDSKMSTLSCKNKIISFEEMDPPENIDDIQSDLIFFQKRVPGHNKMEFESSLYEGHFLACQKEDDAFKLILKKKDENGDKSVMFTLTNLHQS , EC50 (read off the curve): ~10 nM
